Catalogue of fold increase in affinity toward BasE relative to 15 readings, one per entry.
- measurement.target: UniProtKB A0A0D5YGP3
- test: biochemical
- Type: binding
- particulars: ratio of KD of lead compound 15 to compound
Write the answer as a number in fold, unit excluded.

# count of solved cases: 2
O=C(O)c1cc(-c2ccc(OCc3ccccc3)cc2)nc2c1cnn2Cc1ccncc1 [Compound 67] = 17
O=C(c1ccccc1)c1ccc(-c2cc(C(=O)O)c3cnn(Cc4ccncc4)c3n2)cc1 [Compound 70] = 2

Now for another entry.
Task item: For Cc1ccc(-c2cc(C(=O)O)c3cnn(Cc4ccncc4)c3n2)s1 [Compound 79] , what is its reported fold increase in affinity toward BasE relative to 15?
Reply: 5

---

- measurement.target: BasE (Acinetobacter baumannii, UniProt A0A0D5YGP3)
- test: biochemical
- Format: binding
- particulars: ratio of KD to lead compound 15
measurement.label: fold loss of affinity/potency toward BasE relative to 15

# count of solved cases: 5
C=Cc1cc(C(=O)O)c2cnn(Cc3ccncc3)c2n1 = ~ 55 fold
O=C(O)c1cc(-c2ccco2)nc2c1cnn2Cc1ccncc1 = ~ 10 fold
O=C(O)c1cc(-c2cccs2)nc2c1cnn2Cc1ccncc1 = ~ 10 fold
CC(=O)Nc1ccc(-c2cc(C(=O)O)c3cnn(Cc4ccncc4)c3n2)cc1 = over 20 fold
O=C(O)c1ccc(-c2cc(C(=O)O)c3cnn(Cc4ccncc4)c3n2)cc1 = over 20 fold

Task item: For O=C(O)c1cc(C#Cc2ccccc2)nc2c1cnn2Cc1ccncc1 , what is its reported fold loss of affinity/potency toward BasE relative to 15?
Reply: ~ 10 fold

Task item: For C#Cc1cc(C(=O)O)c2cnn(Cc3ccncc3)c2n1 , what is its reported fold loss of affinity/potency toward BasE relative to 15?
Reply: ~ 55 fold

Task item: For O=C(O)c1cc(/C=C/c2ccccc2)nc2c1cnn2Cc1ccncc1 , what is its reported fold loss of affinity/potency toward BasE relative to 15?
Reply: ~ 10 fold
